# maps each entry to its Counts Seq II
Target: biotinylated CD59 (Homo sapiens, UniProt P13987)
Construct: Recombinant soluble human CD59 with an additional C-terminal cysteine residue
Sequence (P13987 26-102 limits assumed): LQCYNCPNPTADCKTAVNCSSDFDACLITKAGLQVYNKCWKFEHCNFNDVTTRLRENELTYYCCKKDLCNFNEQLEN
Assay: mRNA-display cyclic peptide screen against CD59-biotin, NGS abundance after 6th selection round
Conditions: raw NGS counts of peptide sequence, sequencing sample Seq II, sheet R6 (6th selection round)
Respond with the number and no other words.

Examples with answers:
[
  {
    "Chain Sequence": "SKNGLTFLCS",
    "Counts Seq II": 14
  },
  {
    "Chain Sequence": "HVIGNRSFTRG",
    "Counts Seq II": 7
  },
  {
    "Chain Sequence": "SAWGNWQIQYY",
    "Counts Seq II": 13
  },
  {
    "Chain Sequence": "FVRGDLYSVRG",
    "Counts Seq II": 14
  },
  {
    "Chain Sequence": "WVYGSRYWRSI",
    "Counts Seq II": 6
  },
  {
    "Chain Sequence": "NSCPDWVRGSRT",
    "Counts Seq II": 113
  }
]

Data request: Can you look up the measured Counts Seq II of SAWGNRQTQYY for me?
Data returned: 500

Data request: Can you look up the measured Counts Seq II of FVTGNRNHTRG for me?
Data returned: 12

Data request: Can you look up the measured Counts Seq II of CFSSRVQSGDT for me?
Data returned: 82

Data request: Can you look up the measured Counts Seq II of WTCHLRHDGPHA for me?
Data returned: 911

Data request: Can you look up the measured Counts Seq II of CFARRLSASFGT for me?
Data returned: 403

Source of measurements: paper PMC12207370
